Cited source for all entries: PubChem BioAssay AID1963965

- Test system: 996289-038-R-J1-PDC spheroid viability
- test details: Anticancer human tumor 996289-038-R-J1-PDC patient-derived colon adenocarcinoma cell line growth inhibition [PI3K]
- run parameters: curve of first compound; second compound 0.316 µM; spheroids with HUVEC and MSC
- Source text: Combinatorial screen of targeted agents with the PI3K inhibitors inavolisib, alpelisib, duvelisib, and copanlisib in multi-cell type tumor spheroids A high-throughput screen of multi-cell type tumor spheroids was designed to identify active combinations of targeted small molecules and PI3K pathway inhibitors. […] Compounds. […] If the clinical Cmax for an agent had not been determined, the highest concentration tested was 10 microM. […]
pIC50: −log10 of the molar value.
observation type: pIC50

Worked examples, 2 compounds total:
CNC(=O)c1ccc(N2C(=S)N(c3ccc(C#N)c(C(F)(F)F)c3)C(=O)C2(C)C)cc1F + CC(Nc1ncnc2nc[nH]c12)c1cc2cccc(Cl)c2c(=O)n1-c1ccccc1 ... < 5.00
Cn1nccc1Nc1nccc(-c2ccn(C(CO)c3ccc(Cl)c(F)c3)c(=O)c2)n1 (stereo unspecified) + COc1c(OCCCN2CCOCC2)ccc2c3n(c(=NC(=O)c4cnc(N)nc4)nc12)CCN3 ... > 7.50

Problem: Please tell me: pIC50 of CCN1CCN(Cc2ccc(Nc3ncc(F)c(-c4cc(F)c5nc(C)n(C(C)C)c5c4)n3)nc2)CC1 + Cc1nc(NC(=O)N2CCCC2C(N)=O)sc1-c1ccnc(C(C)(C)C(F)(F)F)c1 , system 996289-038-R-J1-PDC spheroid viability?
Solution: < 6.00

Problem: Please tell me: pIC50 of CC(=O)c1c(C)c2cnc(Nc3ccc(N4CCNCC4)cn3)nc2n(C2CCCC2)c1=O + COc1c(OCCCN2CCOCC2)ccc2c3n(c(=NC(=O)c4cnc(N)nc4)nc12)CCN3 , system 996289-038-R-J1-PDC spheroid viability?
Solution: > 9.50

Problem: Please tell me: pIC50 of CC(C)n1nc(-c2ccc3oc(N)nc3c2)c2c(N)ncnc21 + CC(Nc1ccc2c(c1)OCCn1cc(N3C(=O)OCC3C(F)F)nc1-2)C(N)=O , system 996289-038-R-J1-PDC spheroid viability?
Solution: 8.07

Problem: Please tell me: pIC50 of CC(C)n1nc(-c2ccc3oc(N)nc3c2)c2c(N)ncnc21 + COc1c(OCCCN2CCOCC2)ccc2c3n(c(=NC(=O)c4cnc(N)nc4)nc12)CCN3 , system 996289-038-R-J1-PDC spheroid viability?
Solution: > 9.50

###

- Tested on: 996289-038-R-J1-PDC spheroid viability
- test details: Anticancer human tumor 996289-038-R-J1-PDC cell line growth inhibition [PI3K];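 further: spheroids exposed to compounds for seven days before viability read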;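 on viability, T/C: luminescence used as a proxy for viable cell amount; percent viability relative to DMSO vehicle control as 100%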
- run parameters: second compound 0.00316 µM; first compound 0.316 µM; stronger effect = lower value; spheroids with HUVEC and MSC
- From the text: Combinatorial screen of targeted agents with the PI3K inhibitors inavolisib, alpelisib, duvelisib, and copanlisib in multi-cell type tumor spheroids A high-throughput screen of multi-cell type tumor spheroids was designed to identify active combinations of targeted small molecules and PI3K pathway inhibitors. […] Compounds. […] If the clinical Cmax for an agent had not been determined, the highest concentration tested was 10 microM. […]
observation type: viability, T/C (%)
// note: answer is a bare numeric in %

C[C@@H](NC(=O)c1ncnc(N)c1Cl)c1ncc(C(=O)Nc2cc(C(F)(F)F)c(Cl)cn2)s1 + COc1c(OCCCN2CCOCC2)ccc2c3n(c(=NC(=O)c4cnc(N)nc4)nc12)CCN3 ... 95.1
CCCS(=O)(=O)Nc1ccc(F)c(C(=O)c2c[nH]c3ncc(-c4ccc(Cl)cc4)cc23)c1F + COc1c(OCCCN2CCOCC2)ccc2c3n(c(=NC(=O)c4cnc(N)nc4)nc12)CCN3 ... 94.6
CC(C)NCC(C(=O)N1CCN(c2ncnc3c2C(C)CC3O)CC1)c1ccc(Cl)cc1 (stereo not given) + CC(Nc1ccc2c(c1)OCCn1cc(N3C(=O)OCC3C(F)F)nc1-2)C(N)=O ... 98.6
CNC(=O)c1ccc(N2C(=S)N(c3ccc(C#N)c(C(F)(F)F)c3)C(=O)C2(C)C)cc1F + CC(Nc1ccc2c(c1)OCCn1cc(N3C(=O)OCC3C(F)F)nc1-2)C(N)=O ... 103
CC1(C)CCC(CN2CCN(c3ccc(C(=O)NS(=O)(=O)c4ccc(NCC5CCOCC5)c([N+](=O)[O-])c4)c(Oc4cnc5[nH]ccc5c4)c3)CC2)=C(c2ccc(Cl)cc2)C1 + CC(Nc1ccc2c(c1)OCCn1cc(N3C(=O)OCC3C(F)F)nc1-2)C(N)=O ... 95.8

Problem: Item under review: C=CC(=O)N1CCN(c2nc(=O)n(-c3c(C)ccnc3C(C)C)c3nc(-c4c(O)cccc4F)c(F)cc23)C(C)C1 (stereo not given) + COc1c(OCCCN2CCOCC2)ccc2c3n(c(=NC(=O)c4cnc(N)nc4)nc12)CCN3 . Reported viability, T/C?
Solution: 118

Problem: Item under review: C=CC(=O)N1CCN(c2nc(=O)n(-c3c(C)ccnc3C(C)C)c3nc(-c4c(O)cccc4F)c(F)cc23)C(C)C1 (stereo not given) + CC(Nc1ccc2c(c1)OCCn1cc(N3C(=O)OCC3C(F)F)nc1-2)C(N)=O . Reported viability, T/C?
Solution: 106

Problem: Item under review: CCN1CCN(Cc2ccc(Nc3ncc(F)c(-c4cc(F)c5nc(C)n(C(C)C)c5c4)n3)nc2)CC1 + CC(Nc1ccc2c(c1)OCCn1cc(N3C(=O)OCC3C(F)F)nc1-2)C(N)=O . Reported viability, T/C?
Solution: 76.9

Problem: Item under review: CNC(=O)c1ccc(N2C(=S)N(c3ccc(C#N)c(C(F)(F)F)c3)C(=O)C2(C)C)cc1F + COc1c(OCCCN2CCOCC2)ccc2c3n(c(=NC(=O)c4cnc(N)nc4)nc12)CCN3 . Reported viability, T/C?
Solution: 93.2

Problem: Item under review: CCCS(=O)(=O)Nc1ccc(F)c(C(=O)c2c[nH]c3ncc(-c4ccc(Cl)cc4)cc23)c1F + CC(Nc1ccc2c(c1)OCCn1cc(N3C(=O)OCC3C(F)F)nc1-2)C(N)=O . Reported viability, T/C?
Solution: 86.3

###

- Test system: 996289-038-R-J1-PDC spheroid viability
- test details: Anticancer human tumor 996289-038-R-J1-PDC cell line growth inhibition [PI3K];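 further: spheroids exposed to compounds for seven days before viability read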
- run parameters: curve of compound; spheroids with HUVEC and MSC
- Excerpt: Combinatorial screen of targeted agents with the PI3K inhibitors inavolisib, alpelisib, duvelisib, and copanlisib in multi-cell type tumor spheroids A high-throughput screen of multi-cell type tumor spheroids was designed to identify active combinations of targeted small molecules and PI3K pathway inhibitors. […] Compounds. […] If the clinical Cmax for an agent had not been determined, the highest concentration tested was 10 microM. […]
observation type: IC50

Worked examples, 4 molecules total:
Cn1nccc1Nc1nccc(-c2ccn(C(CO)c3ccc(Cl)c(F)c3)c(=O)c2)n1 (stereo not given) ... > 10 µM
C=CC(=O)N1CCN(c2nc(=O)n(-c3c(C)ccnc3C(C)C)c3nc(-c4c(O)cccc4F)c(F)cc23)C(C)C1 (stereo not given) ... > 10 µM
Cn1ncnc1[C@H]1c2n[nH]c(=O)c3cc(F)cc(c23)N[C@@H]1c1ccc(F)cc1 ... > 0.1 µM
CCCS(=O)(=O)Nc1ccc(F)c(C(=O)c2c[nH]c3ncc(-c4ccc(Cl)cc4)cc23)c1F ... 6.53 µM [middle of 4 runs]

Let's switch to this molecule now.
Problem: Item under review: CC(C)n1nc(-c2ccc3oc(N)nc3c2)c2c(N)ncnc21 . Reported IC50?
Solution: 58.6 nM [middle of 4 runs]

###

- Tested on: 996289-038-R-J1-PDC spheroid viability
- test details: Anticancer human tumor 996289-038-R-J1-PDC cell line growth inhibition [PI3K];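 further: spheroids exposed to compounds for seven days before viability read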;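 on viability, T/C: luminescence used as a proxy for viable cell amount; percent viability relative to DMSO vehicle control as 100%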
- run parameters: second compound 1 µM; first compound 3.16 µM; stronger effect = lower value; spheroids with HUVEC and MSC
observation type: viability, T/C (%)
// note: answer is a bare numeric in %

CNC(=O)c1ccc(N2C(=S)N(c3ccc(C#N)c(C(F)(F)F)c3)C(=O)C2(C)C)cc1F + COc1c(OCCCN2CCOCC2)ccc2c3n(c(=NC(=O)c4cnc(N)nc4)nc12)CCN3 ... 19.1
CCCS(=O)(=O)Nc1ccc(F)c(C(=O)c2c[nH]c3ncc(-c4ccc(Cl)cc4)cc23)c1F + COc1c(OCCCN2CCOCC2)ccc2c3n(c(=NC(=O)c4cnc(N)nc4)nc12)CCN3 ... 14
Cn1ncc(Cl)c1-c1cc(C(=O)NC(CN)Cc2cccc(F)c2)sc1Cl (stereo not given) + COc1c(OCCCN2CCOCC2)ccc2c3n(c(=NC(=O)c4cnc(N)nc4)nc12)CCN3 ... 20.1
CC(C)NCC(C(=O)N1CCN(c2ncnc3c2C(C)CC3O)CC1)c1ccc(Cl)cc1 (stereo not given) + CC(Nc1ncnc2nc[nH]c12)c1cc2cccc(Cl)c2c(=O)n1-c1ccccc1 ... 101

Let's switch to this compound now.
Problem: Item under review: Cn1nccc1Nc1nccc(-c2ccn(C(CO)c3ccc(Cl)c(F)c3)c(=O)c2)n1 (stereo not given) + COc1c(OCCCN2CCOCC2)ccc2c3n(c(=NC(=O)c4cnc(N)nc4)nc12)CCN3 . Reported viability, T/C?
Solution: 15
